tested.target: human TREM2/DAP12 fusion protein (human, UniProt O43914 41-113, limits assumed)
Sequence (O43914 other isoform, or with tags, fused parts or gaps limits assumed): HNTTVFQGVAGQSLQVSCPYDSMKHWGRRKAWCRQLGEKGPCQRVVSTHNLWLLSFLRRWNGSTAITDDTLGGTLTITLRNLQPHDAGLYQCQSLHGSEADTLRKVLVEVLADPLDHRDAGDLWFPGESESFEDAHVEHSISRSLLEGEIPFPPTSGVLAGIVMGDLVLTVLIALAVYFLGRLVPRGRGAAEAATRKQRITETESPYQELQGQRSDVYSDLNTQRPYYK
method.summary: cell-based or functional assay
We use 6 fold over control as the dividing line for Soluble luciferase activation at 10 µg/ml Fold over control: on or above the line is MET, below is NOT MET.

Past entries and their recorded results:
AL2p-h50 (antibody, human IgG1, V domains shown, humanized, human IgG1; Fab and IgG formats under one id) VH: QVQLVQSGAEVKKPGSSVKVSCKASGYAFSSSWMNWVRQAPGQGLEWMGRIYPGDGDTNYAQKFQGRVTITADESTSTAYMELSSLRSEDTAVYYCARLLRNQPGESYAMDYWGQGTLVTVSS VL: DVVMTQTPLSLSVTPGQPASISCRSSQSLVHSNGYTYLHWYLQKPGQSPQLLIYKVSNRFSGVPDRFSGSGSGTDFTLKISRVEAEDVGVYYCSQSTRVPYTFGQGTKLEIK ... MET
AL2p-h34 (antibody, human IgG1, V domains shown, humanized, human IgG1; Fab and IgG formats under one id) VH: QVQLVQSGAEVKKPGSSVKVSCKASGYAFSSSWMNWVRQAPGQGLEWIGRIYPGDGDTNYAQKFQGRATITADTSTSTAYMELSSLRSEDTAVYFCARLLRNQPGESYAMDYWGQGTLVTVSS VL: DVVMTQTPLSLSVTPGQPASISCRSSQSLVHSNGYTYLHWYLQKPGQSPQLLIYKVSNRFSGVPDRFSGSGSGTDFTLKISRVEAEDLGVYFCSQSTRVPYTFGQGTKLEIK ... MET
AL2p-h90 (antibody, human IgG1, V domains shown, humanized, human IgG1; Fab and IgG formats under one id) VH: QVQLVQSGAEVKKPGASVKVSCKASGYAFSSSWMNWVRQAPGQRLEWIGRIYPGDGDTNYAQKFQGRVTITADTSASTAYMELSSLRSEDTAVYYCARLLRNQPGESYAMDYWGQGTLVTVSS VL: DVQMTQSPSSLSASVGDRVTITCRSSQSLVHSNGYTYLHWYQQKPGKSPKLLIYKVSNRFSGVPSRFSGSGSGTDFTLTISSLQPEDFATYYCSQSTRVPYTFGGGTKVEIK ... NOT MET
AL2p-h32 (antibody, human IgG1, V domains shown, humanized, human IgG1; Fab and IgG formats under one id) VH: QVQLVQSGAEVKKPGSSVKVSCKASGYAFSSSWMNWVRQAPGQGLEWIGRIYPGDGDTNYNGEFRVRATLTADTSTTTAYMELSSLRSEDTAVYFCARLLRNQPGESYAMDYWGQGTLVTVSS VL: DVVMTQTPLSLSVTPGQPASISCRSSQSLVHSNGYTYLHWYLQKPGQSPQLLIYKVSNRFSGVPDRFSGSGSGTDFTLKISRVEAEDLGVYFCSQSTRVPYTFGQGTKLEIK ... NOT MET

Proceed to the following item.
Ask: Check the entry AL2p-h21 (antibody, human IgG1, V domains shown, humanized, human IgG1; Fab and IgG formats under one id) VH: QVQLVQSGAEVKKPGASVKVSCKASGYAFSSSWMNWVRQAPGQGLEWMGRIYPGDGDTNYAQKFQGRVTMTRDTSTSTVYMELSSLRSEDTAVYYCARLLRNQPGESYAMDYWGQGTLVTVSS VL: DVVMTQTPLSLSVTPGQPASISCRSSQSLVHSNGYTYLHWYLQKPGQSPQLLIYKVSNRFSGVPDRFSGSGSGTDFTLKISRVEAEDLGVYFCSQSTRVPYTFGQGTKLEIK : does Soluble luciferase activation at 10 µg/ml Fold over control equal or exceed 6 fold over control?
Result: MET

Cited source for all entries: patent US20200317776A1
